test system: OVCAR-8; assay: NCI tumour cell line growth inhibition, 48 h
Calls of active or inactive are those of the source. Cut-off read from the data, not from the text of the source: active = GI50 up to about 1.1 µM and inactive = higher.
Entries and their GI50
Measurement Label: GI50

In [3]: df
Out[3]:
                                   compound  measurement_label  observed_measurement
0             C/N=c1\ss/c(=N\C(=S)N(C)C)n1C               GI50   > 100 µM (inactive)
1  CC(C)=CCc1c(OC(=O)c2c(C)cc(O)cc2O)cc(CO)c(CO)c1O               GI50      25 µM (inactive)
2  C[C@]12CC[C@@H]3c4cc(OCC(F)(F)F)c(O)cc4C(=O)C[C@H]3[C@@H]1CC[C@@H]2O               GI50    23.1 µM (inactive)
3  CCOC(=O)CC1(C(=O)OCC)c2[nH]c3ccccc3c2CCN1Cc1ccccc1 (centres undefined)               GI50    23.7 µM (inactive)
4  CCOc1ccc(N/C(=C(/C(Cl)=C(/Cl)NCCO)[N+](=O)[O-])n2nnc3ccccc32)cc1               GI50    18.3 µM (inactive)
5  COc1cc(C(C#N)NNC(=O)c2ccccc2O)ccc1O (centres undefined)               GI50    5.83 µM (inactive)
6  C[C@]12C=CC(=O)C=C1CC[C@@H]1[C@@H]2C(=O)C[C@@]2(C)[C@H]1CC[C@]2(O)C(=O)CO [PREDNISONE]               GI50   > 100 µM (inactive)
7  N#C/C(=C\c1ccc2[nH]ccc2c1)C(=O)c1ccc(O)c(O)c1               GI50   > 100 µM (inactive)
8  Cc1ccc(S(=O)(=O)NC(=O)Nc2cc(Cl)c(S(N)(=O)=O)cc2S(N)(=O)=O)cc1               GI50   > 100 µM (inactive)

---

tested on: SK-MEL-5; test: NCI tumour cell line growth inhibition, 48 h
The source made the active and inactive calls. Cut-off read from the data, not from the text of the source: active = GI50 up to about 1.1 µM and inactive = higher.
Possible outcomes: active, inactive

Molecule	Class Name
Cc1cc(Br)cc(C)c1NC(=O)C(=O)Nn1c(S)nc2ccccc2c1=O	inactive
N/C(=N\O)NCCN1CCCCCCC1	inactive
Nc1nc(-c2ccccc2)nc2c1[n+]([O-])c1ccccc1[n+]2[O-]	inactive
O=C(O)C1(CC(CCCN2CCCCC2)c2ccccc2)CCCC1 (stereo unspecified)	inactive
CS/C(=N\Nc1cnc2ccccc2n1)NS(=O)(=O)c1cc(C)c(Cl)cc1Cl	inactive
Oc1cc(C2OCCCO2)cc(O)c1O	inactive
Cc1cc(S(=O)(=O)Nc2nc(N)nc(N3N=CCC3C)n2)c(S)cc1Cl (stereo unspecified)	inactive
BrC1=C(Br)C2(SCCS2)[C@H]2C[C@@H]1c1ccccc12	inactive
CCOc1ccc2nc3nc(O)nc(C)c3c(NC(C)(CO)CO)c2c1	inactive
c1ccc2c(c1)SC1Sc3ccccc3[S+]21 (stereo unspecified)	inactive
Cc1ccc(C)n2c1nc1ccc3ccccc3c12	inactive
COc1ccc(CCNCCCC2c3ccccc3-c3ccccc32)cc1OC	inactive
O=C(O)c1ccc(S(=O)(=O)c2ccccc2)c([N+](=O)[O-])c1	inactive
NC(=O)NNC(=O)c1nc[nH]c1[N+](=O)[O-]	inactive
COc1cc2cc(C(=O)N3CC(CCl)c4ccccc43)[nH]c2c(OC)c1OC (stereo unspecified)	inactive
CCOC(=O)NC(=O)c1cn(CCOC(=O)CCCCCCCCC(=O)OCCn2cc(C(=O)NC(=O)OCC)c(=O)[nH]c2=O)c(=O)[nH]c1=O	inactive
Cc1cc(C)nc(NS(=O)(=O)c2ccc(NC(=O)c3c4ccccc4nc4ccccc34)cc2)n1	inactive
COC1(OC)CC2C(=O)N(Cc3ccccc3)C1CC2S(=O)(=O)c1ccccc1 (stereo unspecified)	inactive
CC1S/C(=N\N=C2/C(=O)Nc3ccc(Br)cc32)N(C2CCCCC2)C1=O (stereo unspecified)	inactive
CCOc1ccc(NC(=O)CC2SC(Nc3ccc(C)cc3C)=NC2=O)cc1 (stereo unspecified)	inactive
COc1ccccc1/N=N/C(C(=O)c1ccccc1)C(=O)c1ccccc1	inactive
c1cncc(-c2cc(-c3cc(-c4cccnc4)[nH]n3)n[nH]2)c1	inactive
NC(=S)N1N=C(c2ccc3c(c2)CCC3)CC1c1ccccc1 (stereo unspecified)	inactive
O=C(NCC(=O)N1CCCC1C(=O)OC(=O)C1CCCN1C(=O)CNC(=O)OCc1ccccc1)OCc1ccccc1 (stereo unspecified)	inactive
CC1CCC(O)/C=C/C(=O)OC(C)C(O)/C=C/C(=O)O1 (stereo unspecified)	inactive
COc1c2c(c(O)c3c4c(c(C)cc13)C1OC3(C(OC)OC5CC(C)(O)C(OC6CC(C)(O)C(O)C(C)O6)C(C)O5)OC1C(OC)(O4)C31CO1)C(=O)C(O)CC2OC1CC(C)(O)C(OC(C)=O)C(C)O1 (stereo unspecified)	active
COCCOC1=C(Cl)C(=O)c2c(O)ccc(O)c2C1=O	inactive
Cc1c(C)c2c(c(N)c1C#N)C(=O)N(OS(=O)(=O)c1ccccc1)C2=O	inactive
CC(=O)NC(CC(C)C)C(=O)NC(Cc1ccccc1)C(=S)N1CCCC1 (stereo unspecified)	inactive
CC(C)NC(C)Cc1ccccc1 (stereo unspecified)	inactive
O=[N+]([O-])c1ccc(SN=S=NSc2cccc(SN=S=NSc3ccc([N+](=O)[O-])cc3)c2)cc1	inactive
CO[P@@]1(=O)O[C@@H](c2ccccc2)[C@H](O)[C@]1(O)c1ccccc1	inactive
O=[N+]([O-])c1ccc(/C=N/C2CCCCC2)cc1	inactive
O=P1(C(O)c2ccccc2)N(Cc2ccccc2)[C@@H]2CCCC[C@H]2N1Cc1ccccc1 (stereo partly specified)	inactive
C(=N/c1ccccc1C1SCCCS1)/c1ccccc1	inactive
CC1C2CC(CC2(C)O)C1(C)C (stereo unspecified)	inactive
Cn1cc(NC(=O)c2cc(NC(=O)CCCCCCCCC(=O)Nc3cc(C(=O)Nc4cc(C(=O)NCCC(N)N)n(C)c4)n(C)c3)cn2C)cc1C(=O)NCCC(=N)N	inactive
S=C(N/N=C(\C(=N/NC(=S)N1CCCCC1)c1ccccn1)c1ccccn1)N1CCCCC1	inactive
C#Cc1nc(N)c2ncn(C3OC(COS(N)(=O)=O)C(O)C3O)c2n1 (stereo unspecified)	active
O=C(NC1C=Nc2ccccc2NC1=O)c1ccccc1Cl (stereo unspecified)	inactive
OC1(c2ccc(Cl)cc2)C(N2CCCC2)c2ccccc2C2=NCCN21 (stereo unspecified)	inactive
